targetSystem: T1, cynomolgus ROR1 (cynoROR1) on CHO-K1 cells (cynomolgus, UniProt A0A2K5WTX7 30-937)
T1 construct: whole, on cells; also called CHO-K1-cynoROR1; CHO-K1-cyROR1
experimentalProtocol: FACS, CHO-K1-cynoROR1 cells
Experimental: The binding properties were characterized by FACS. The recombinant antibodies obtained above were serially diluted to 9 different concentrations and incubated for 1 h, and then determined for the binding ability with HEK293T-hROR1, CHO-K1-cynoROR1 and A549 cell lines (endogenously expressing ROR1), respectively. The secondary antibody was then incubated for 1 h. The results are shown in FIG. 4-6 and Table 7-2 below.
If the reported MAX(MFI) equals or exceeds 20000 MFI, assign met. If not, assign not met.

Record PR001357 (antibody, human IgG1, kappa, V domains shown, fully human IgG1, kappa) VH: QVQLVQSGGGVVQPGRSLRLSCAASGFTFSSYGMHWVRQAPGKGLEWVAVIWYDGSNKDYADSVKGRFTISRDTSKNTLYLQMNSLRAEDTAVYYCAREQARSFDLWGRGTLVTVSS VL: DIQLTQSPYSLSASVGDRVTITCRASQTINNWLAWYQQKPGKAPKLLIYKASSLESGVPSRFSGSGSGTEFTLTISSLQPDDFATYYCQQYKLYSPMYTFGQGTKVEIKR ; criterion: MAX(MFI) no lower than 20000 MFI. Met?
met

Record PR001363 (antibody, human IgG1, kappa, V domains shown, fully human IgG1, kappa) VH: QVQLVESGGGVVQPGRSLRLSCAASGFSFSSYAMHWVRQAPGRGLEWVAVIWYDGGDEDSIDSVKGRFTISRDDSKNTLYLQMNSLRAEDTAVYYCAREQARSFDLWGRGTLVTVSS VL: DVVMTQSPSTLSASVGDRVTITCRASQTINNWLAWYQQKPGKAPKLLIYKASSLESGVPSRFSGSGSGTEFTLTISSLQPDDFATYYCQQYNSYSPMYTFGQGTKVEIKR ; criterion: MAX(MFI) no lower than 20000 MFI. Met?
not met

Record PR001364 (antibody, human IgG1, kappa, V domains shown, fully human IgG1, kappa; also called anti-ROR1 1015M3-D8 hIgG1; PR001364(WT)) VH: EVQLLESGGGVVQPGRSLRLSCAASGFTFSSFGMHWVRQAPGKGLEWVAVIWYDGSDKDYADSVKGRFTISRDTSKNTLYLQMNSLRAEDTAVYYCAREQARSFDLWGRGTLVTVSS VL: DIVMTQSPSTLSASVGDRVTITCRASQTINNWLAWYQQKPGKAPKLLIYKASSLESGVPSRFSGSGSGTEFTLTISSLQPDDFATYYCQQYNSYSPMYTFGQGTKVEIKR ; criterion: MAX(MFI) no lower than 20000 MFI. Met?
not met

Record PR001360 (antibody, human IgG1, kappa, V domains shown, fully human IgG1, kappa) VH: QVQLVESGGGVVQPGRSLRLSCAASGFTFSSYGMHWVRQAPGKGLEWVAVIWYDGSDKDSVDSVKGRFTISRDDSKNTLYLQMNSLRAEDTAVYYCAREQARSFDLWGRGTLVTVSS VL: DIQMTQSPSTLSASVGDRVTITCRASQTINNWLAWYQQKPGKAPKLLIYKASSLESGVPSRFSGSGSGTEFTLTISSLQPDDFATYYCQQYNIYSPMYTFGQGTKVEIKR ; criterion: MAX(MFI) no lower than 20000 MFI. Met?
met

Record PR001358 (antibody, human IgG1, kappa, V domains shown, fully human IgG1, kappa) VH: QVQLVQSGGGVVQPGRSLRLSCAASGFTFSSYAMHWVRQAPGKGLEWVAIMWYDGSNTDYADSVKGRFTISRDTSKNTLFLQMNSLRAEDTAVYYCAREQARSFDLWGRGTLVTVSS VL: DIVMTQSPSTLSASVGDRVTITCRASQSINSWLAWYQQKPGKAPKLLIYKASNLESGVPSRFSGSGSGTEFTLTISSLQPDDFATYYCQQYKSYSPMYTFGQGTKVDIKR ; criterion: MAX(MFI) no lower than 20000 MFI. Met?
met

Record PR001362 (antibody, V domains shown, fully human IgG1, kappa) VH: QVQLVESGGGLVQPGGSLRLSCAASGFTFSTYGMHWVRQAPGKGLEWVAVIWYDGSDEDYADSVKGRFTISRDNSKNTLYLQMNSLRAEDTAVYYCARDQARSFDLWGRGTLVTVSS VL: DIVMTQSPSTLSASVGDRVTITCRASQSINSWLAWYQQKPGKAPKLLIYKASSLESGVPSRFSGSGSGTEFTLTISSLQPDDFATYYCQQYKSYSPMYTFGQGTKVEIKR ; criterion: MAX(MFI) no lower than 20000 MFI. Met?
not met

// data source = patent US20240010721A1
